- Target Entity: ATM (Homo sapiens)
- Construct: endogenous in cells
- Test Name: ATM cellular potency assay (pATM Ser1981 in irradiated HT29 cells)
- Test Context: 1 h compound, X-ray irradiation, pATM (Ser1981); Table 2; read-out: Assay a) ATM Cell IC50
pIC50: −log10 of the molar value.
Metric: pIC50

Study these solved cases before continuing.
>>> observed_result("CN(C)C1CN(c2ccc(-c3ccc4ncc5c(c4c3)n([C@H]3CCCOC3)c(=O)n5C)cn2)C1")
7.78
>>> observed_result("CO[C@H]1CC[C@H](n2c(=O)n(C)c3cnc4ccc(-c5ccc(N6CCC(N(C)C)CC6)nc5)cc4c32)C1 (single isomer, unassigned) [Example 33]")
9.48
>>> observed_result("CO[C@H]1CCC[C@H](n2c(=O)n(C)c3cnc4ccc(-c5ccc(N6CC(N(C)C)C6)nc5)cc4c32)C1 (single isomer, unassigned) [Example 56]")
7.80

A: CO[C@H]1CC[C@H](n2c(=O)n(C)c3cnc4ccc(-c5ccc(N6CC(N(C)C)C6)nc5)cc4c32)CC1
B: CO[C@H]1CC[C@H](n2c(=O)n(C)c3cnc4ccc(-c5ccc(N6CC(N(C)C)C6)nc5)cc4c32)C1 (single isomer, unassigned) [Example 23]
(Q) In terms of reported pIC50, does A or B have the smaller number? Bench note: the answer is the label of the chosen record.
(A) B
(B: 7.64, A: 8.18)

1: CO[C@@H]1CCC[C@H](n2c(=O)n(C)c3cnc4ccc(-c5ccc(N6CC(N(C)C)C6)nc5)cc4c32)C1 (single isomer, unassigned) [Example 50]
2: CO[C@H]1C[C@@H](n2c(=O)n(C)c3cnc4cc(F)c(-c5ccc(N6CC(N(C)C)C6)nc5)cc4c32)C1
3: CN(C)C1CCN(c2ccc(-c3cc4c(cc3F)ncc3c4n([C@H]4CCCOC4)c(=O)n3C)cn2)CC1
4: CO[C@H]1CCC[C@H](n2c(=O)n(C)c3cnc4ccc(-c5ccc(N6CC[C@@H](N(C)C)C6)nc5)cc4c32)C1 (single isomer, unassigned) [Example 52]
5: CO[C@H]1CC[C@H](n2c(=O)n(C)c3cnc4ccc(-c5ccc(N6CC[C@@H](N(C)C)C6)nc5)cc4c32)C1
(Q) List from greatest to least pIC50. Please express your ranking as an ordered list of the labels.
(A) 4, 5, 3, 1, 2
(4: 9.95, 5: 9.51, 3: 8.69, 1: 7.78, 2: 7.47)

I: CO[C@H]1CC[C@H](n2c(=O)n(C)c3cnc4ccc(-c5ccc(N6CC(N(C)C)C6)nc5)cc4c32)C1 (single isomer, unassigned) [Example 22]
II: CNC1CCN(c2ccc(-c3ccc4ncc5c(c4c3)n([C@H]3CCCOC3)c(=O)n5C)cn2)CC1
III: CN(C)C1CCN(c2ccc(-c3cc4c(cc3F)ncc3c4n([C@@H]4CCCOC4)c(=O)n3C)cn2)CC1
(Q) Rank order required: pIC50, descending. Please list the labels according to the requested order.
(A) II, III, I

1: CO[C@@H]1CCC[C@H](n2c(=O)n(C)c3cnc4ccc(-c5ccc(N6CCC(N(C)C)CC6)nc5)cc4c32)C1 (single isomer, unassigned) [Example 46]
2: CNC1CCN(c2ccc(-c3cc4c(cc3F)ncc3c4n([C@H]4C[C@@H](OC)C4)c(=O)n3C)cn2)CC1
3: CO[C@H]1C[C@@H](n2c(=O)n(C)c3cnc4ccc(-c5ccc(N6CCC(N(C)C)CC6)nc5)cc4c32)C1
(Q) Parameters: sort_field (pIC50), sort_dir (desc). Respond with an ordered listing of the labels, as requested.
(A) 3, 2, 1

P: CO[C@H]1C[C@H](n2c(=O)n(C)c3cnc4ccc(-c5ccc(N6CC[C@@H](N(C)C)C6)nc5)cc4c32)C1
Q: CN(C)C1CCN(c2ccc(-c3ccc4ncc5c(c4c3)n([C@H]3CCCOC3)c(=O)n5C)cn2)CC1
R: CO[C@H]1C[C@@H](n2c(=O)n(C)c3cnc4cc(F)c(-c5ccc(N6CC[C@H](N(C)C)C6)nc5)cc4c32)C1
S: CN(C)C1CCN(c2ccc(-c3ccc4ncc5c(c4c3)n([C@@H]3CCCOC3)c(=O)n5C)cn2)CC1
(Q) List by increasing pIC50. Enter labels, ranked according to the request.
(A) R, Q, P, S

A: CNC1CCN(c2ccc(-c3ccc4ncc5c(c4c3)n(C3CCOCC3)c(=O)n5C)cn2)CC1
B: CN(C)[C@H]1CCN(c2ccc(-c3cc4c(cc3F)ncc3c4n([C@@H]4CCCOC4)c(=O)n3C)cn2)C1
(Q) Compare A and B and name the one whose reported pIC50 is smaller. Bench note: the answer is the label of the chosen record.
(A) B
(B: 7.20, A: 9.12)

I: CO[C@@H]1CCC[C@H](n2c(=O)n(C)c3cnc4ccc(-c5ccc(N6CCC(N(C)C)CC6)nc5)cc4c32)C1 (single isomer, unassigned) [Example 45]
II: CN(C)[C@@H]1CCN(c2ccc(-c3ccc4ncc5c(c4c3)n([C@H]3CCOC3)c(=O)n5C)cn2)C1
(Q) Out of I and II , name the one with the higher pIC50. Your answer should be the label attached to the chosen record.
(A) I
(I: 9.21, II: 8.98)

I: CO[C@H]1C[C@@H](n2c(=O)n(C)c3cnc4ccc(-c5ccc(N6CC[C@H](N(C)C)C6)nc5)cc4c32)C1
II: CN(C)[C@@H]1CCN(c2ccc(-c3ccc4ncc5c(c4c3)n([C@@H]3CCCOC3)c(=O)n5C)cn2)C1
(Q) For the pair I and II , which member has the lower pIC50 number? Give the label of your selection.
(A) I
(I: 7.90, II: 9.20)

###

- Target Entity: ATM (Homo sapiens, UniProt Q13315)
- Construct: endogenous in cells
- Test Name: ATM cellular potency assay (pATM Ser1981 in irradiated HT29 cells)
- Test Context: 1 h compound, X-ray irradiation, pATM (Ser1981); Table 2; read-out: Assay a) ATM Cell IC50
Metric: IC50 (nM)

>>> observed_result("CO[C@H]1C[C@@H](n2c(=O)n(C)c3cnc4cc(F)c(-c5ccc(N6CCC(N(C)C)CC6)nc5)cc4c32)C1")
1.54

a: CN(C)[C@@H]1CCN(c2ccc(-c3cc4c(cc3F)ncc3c4n([C@H]4CCCOC4)c(=O)n3C)cn2)C1
b: CO[C@H]1CC[C@@H](n2c(=O)n(C)c3cnc4ccc(-c5ccc(N6CC[C@@H](N(C)C)C6)nc5)cc4c32)CC1 (single isomer, unassigned)
c: CO[C@H]1CCC[C@H](n2c(=O)n(C)c3cnc4ccc(-c5ccc(N6CC[C@@H](N(C)C)C6)nc5)cc4c32)C1 (single isomer, unassigned) [Example 51]
(Q) Arrange the 3 compounds by rising IC50, starting with the smallest. Your reply should list the labels following the order given in the request.
(A) c, b, a
(c: 0.589 nM, b: 0.889 nM, a: 1.46 nM)

###

- Target Entity: ATR (Homo sapiens, UniProt Q13535)
- Construct: endogenous in cells
- Sequence (Q13535 whole entry): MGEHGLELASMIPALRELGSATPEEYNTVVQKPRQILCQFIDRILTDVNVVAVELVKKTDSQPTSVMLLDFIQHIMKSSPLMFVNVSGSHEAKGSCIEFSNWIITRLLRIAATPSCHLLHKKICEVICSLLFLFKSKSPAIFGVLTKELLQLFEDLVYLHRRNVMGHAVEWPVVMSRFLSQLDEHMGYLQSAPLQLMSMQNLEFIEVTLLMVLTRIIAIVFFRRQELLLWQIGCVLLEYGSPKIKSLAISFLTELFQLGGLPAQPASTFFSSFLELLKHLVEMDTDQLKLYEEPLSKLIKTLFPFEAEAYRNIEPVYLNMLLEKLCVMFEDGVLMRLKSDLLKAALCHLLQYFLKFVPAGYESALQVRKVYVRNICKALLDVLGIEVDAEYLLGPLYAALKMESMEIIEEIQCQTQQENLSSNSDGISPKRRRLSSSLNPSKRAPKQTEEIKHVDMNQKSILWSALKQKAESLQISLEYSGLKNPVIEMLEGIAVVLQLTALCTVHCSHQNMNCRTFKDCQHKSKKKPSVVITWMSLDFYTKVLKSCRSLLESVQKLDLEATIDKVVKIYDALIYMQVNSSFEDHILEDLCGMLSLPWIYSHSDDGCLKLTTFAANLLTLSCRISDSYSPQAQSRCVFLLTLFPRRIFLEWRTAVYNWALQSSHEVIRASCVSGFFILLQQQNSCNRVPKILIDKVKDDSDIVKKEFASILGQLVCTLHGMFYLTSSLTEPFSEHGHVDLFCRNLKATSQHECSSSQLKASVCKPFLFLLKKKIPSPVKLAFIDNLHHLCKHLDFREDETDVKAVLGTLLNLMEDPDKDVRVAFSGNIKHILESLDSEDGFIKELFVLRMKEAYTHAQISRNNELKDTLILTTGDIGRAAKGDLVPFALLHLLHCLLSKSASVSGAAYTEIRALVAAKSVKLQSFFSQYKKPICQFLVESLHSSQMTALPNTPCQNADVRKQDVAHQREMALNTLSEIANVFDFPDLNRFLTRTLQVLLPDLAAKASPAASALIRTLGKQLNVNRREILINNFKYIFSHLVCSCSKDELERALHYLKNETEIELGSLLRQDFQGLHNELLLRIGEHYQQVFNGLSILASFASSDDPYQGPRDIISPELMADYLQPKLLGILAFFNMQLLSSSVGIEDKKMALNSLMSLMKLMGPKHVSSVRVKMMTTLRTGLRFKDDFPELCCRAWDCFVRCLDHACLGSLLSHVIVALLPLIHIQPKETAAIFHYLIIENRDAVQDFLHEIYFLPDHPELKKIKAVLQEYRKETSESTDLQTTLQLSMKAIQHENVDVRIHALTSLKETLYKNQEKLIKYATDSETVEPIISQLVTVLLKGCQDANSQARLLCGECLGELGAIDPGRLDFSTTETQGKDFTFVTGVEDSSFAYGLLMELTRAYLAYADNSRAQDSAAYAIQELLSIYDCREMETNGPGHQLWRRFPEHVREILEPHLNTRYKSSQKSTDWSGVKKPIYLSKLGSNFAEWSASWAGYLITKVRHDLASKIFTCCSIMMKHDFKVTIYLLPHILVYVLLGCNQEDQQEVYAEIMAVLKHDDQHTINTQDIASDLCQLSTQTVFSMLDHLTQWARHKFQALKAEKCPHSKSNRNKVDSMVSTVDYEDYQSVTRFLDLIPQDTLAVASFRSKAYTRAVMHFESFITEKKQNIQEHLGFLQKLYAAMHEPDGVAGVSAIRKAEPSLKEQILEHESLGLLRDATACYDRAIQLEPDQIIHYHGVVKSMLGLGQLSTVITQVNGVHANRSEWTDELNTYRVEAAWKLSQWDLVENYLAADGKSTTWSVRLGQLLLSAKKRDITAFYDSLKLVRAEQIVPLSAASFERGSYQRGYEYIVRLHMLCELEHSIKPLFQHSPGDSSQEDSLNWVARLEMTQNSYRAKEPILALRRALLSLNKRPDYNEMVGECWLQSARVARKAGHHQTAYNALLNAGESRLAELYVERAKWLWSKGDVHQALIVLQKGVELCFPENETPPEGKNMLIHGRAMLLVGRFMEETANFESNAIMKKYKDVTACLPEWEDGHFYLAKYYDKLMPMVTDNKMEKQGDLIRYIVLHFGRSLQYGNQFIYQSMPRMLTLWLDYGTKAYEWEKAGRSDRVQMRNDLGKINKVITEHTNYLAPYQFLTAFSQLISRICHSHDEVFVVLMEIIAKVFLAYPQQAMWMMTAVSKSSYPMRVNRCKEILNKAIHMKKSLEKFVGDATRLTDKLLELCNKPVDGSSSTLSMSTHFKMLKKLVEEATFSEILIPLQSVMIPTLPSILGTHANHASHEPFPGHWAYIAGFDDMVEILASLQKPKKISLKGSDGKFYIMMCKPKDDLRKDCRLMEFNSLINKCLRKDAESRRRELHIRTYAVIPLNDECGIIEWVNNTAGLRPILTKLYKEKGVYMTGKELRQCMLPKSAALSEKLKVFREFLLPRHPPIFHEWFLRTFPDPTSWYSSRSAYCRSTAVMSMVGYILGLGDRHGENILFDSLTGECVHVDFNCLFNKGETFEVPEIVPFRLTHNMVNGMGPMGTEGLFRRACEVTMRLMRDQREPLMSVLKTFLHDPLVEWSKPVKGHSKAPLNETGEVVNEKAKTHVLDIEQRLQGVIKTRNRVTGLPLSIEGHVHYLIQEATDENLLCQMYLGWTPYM
- Sequence (Q8WXE1 whole entry partner): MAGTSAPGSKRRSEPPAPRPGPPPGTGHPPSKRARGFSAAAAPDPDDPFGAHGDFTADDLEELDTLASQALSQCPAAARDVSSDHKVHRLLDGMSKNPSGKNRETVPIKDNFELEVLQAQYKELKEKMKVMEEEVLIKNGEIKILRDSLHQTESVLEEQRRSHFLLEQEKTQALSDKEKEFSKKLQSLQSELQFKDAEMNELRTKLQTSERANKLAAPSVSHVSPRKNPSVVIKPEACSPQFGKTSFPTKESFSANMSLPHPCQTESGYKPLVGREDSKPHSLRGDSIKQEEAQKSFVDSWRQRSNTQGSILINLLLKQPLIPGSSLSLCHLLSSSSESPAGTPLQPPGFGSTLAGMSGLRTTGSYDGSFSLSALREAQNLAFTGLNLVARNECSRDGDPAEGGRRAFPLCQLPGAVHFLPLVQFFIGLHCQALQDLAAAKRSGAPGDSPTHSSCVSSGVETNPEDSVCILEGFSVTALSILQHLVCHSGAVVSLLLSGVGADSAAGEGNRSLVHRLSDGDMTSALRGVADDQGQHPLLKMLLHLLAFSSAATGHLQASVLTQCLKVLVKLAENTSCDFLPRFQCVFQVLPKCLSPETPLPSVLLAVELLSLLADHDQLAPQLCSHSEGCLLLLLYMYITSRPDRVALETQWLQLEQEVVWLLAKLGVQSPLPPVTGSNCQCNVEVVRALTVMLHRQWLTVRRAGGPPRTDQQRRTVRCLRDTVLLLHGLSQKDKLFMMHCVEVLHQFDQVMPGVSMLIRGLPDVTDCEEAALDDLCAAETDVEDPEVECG
- Test Name: ATR cellular potency assay (pChk1 Ser345 in HT29 cells after 4NQO)
- Test Context: pChk1 (Ser 345); Table 2; read-out: Assay b) ATR Cell IC50
Metric: IC50 (µM)

>>> observed_result("CN(C)[C@@H]1CCN(c2ccc(-c3ccc4ncc5c(c4c3)n([C@H]3CCCOC3)c(=O)n5C)cn2)C1 [Example 9]")
2.48

P: CO[C@H]1CC[C@H](n2c(=O)n(C)c3cnc4ccc(-c5ccc(N6CC(N(C)C)C6)nc5)cc4c32)CC1 [Example 25]
Q: CO[C@H]1C[C@@H](n2c(=O)n(C)c3cnc4ccc(-c5ccc(N6CC[C@H](N(C)C)C6)nc5)cc4c32)C1 [Example 18]
R: CN(C)C1CN(c2ccc(-c3ccc4ncc5c(c4c3)n([C@H]3CCCOC3)c(=O)n5C)cn2)C1 [Example 24]
S: CN(C)[C@@H]1CCN(c2ccc(-c3ccc4ncc5c(c4c3)n([C@@H]3CCCOC3)c(=O)n5C)cn2)C1 [Example 7]
(Q) Sort these molecules on IC50 so the largest reading comes first. # the answer lists labels in the order requested
(A) Q, R, P, S

###

- Target Entity: ATR (Homo sapiens, UniProt Q13535)
- Construct: endogenous in cells
- Test Name: ATR cellular potency assay (pChk1 Ser345 in HT29 cells after 4NQO)
- Test Context: pChk1 (Ser 345); Table 2; read-out: Assay b) ATR Cell IC50
# Lookup of reported IC50 keyed by entry

>>> observed_result("CN(C)C1CN(c2ccc(-c3ccc4ncc5c(c4c3)n(C3CCC3)c(=O)n5C)cn2)C1 [Example 26]")
"> 20.1 µM"
>>> observed_result("CO[C@H]1CC[C@H](n2c(=O)n(C)c3cnc4ccc(-c5ccc(N6CCC(N(C)C)CC6)nc5)cc4c32)C1 (single isomer, unassigned) [Example 32]")
"> 30 µM"
>>> observed_result("CN(C)C1CCN(c2ccc(-c3cc4c(cc3F)ncc3c4n([C@H]4CCCOC4)c(=O)n3C)cn2)CC1 [Example 41]")
"> 30 µM"
>>> observed_result("CN(C)[C@H]1CCN(c2ccc(-c3cc4c(cc3F)ncc3c4n([C@@H]4CCCOC4)c(=O)n3C)cn2)C1 [Example 19]")
"> 30 µM"

Documented IC50 of CO[C@H]1C[C@@H](n2c(=O)n(C)c3cnc4ccc(-c5ccc(N6CCC(N(C)C)CC6)nc5)cc4c32)C1 [Example 36] : > 30 µM

Entry CO[C@H]1CC[C@H](n2c(=O)n(C)c3cnc4cc(F)c(-c5ccc(N6CC(N(C)C)C6)nc5)cc4c32)C1 (single isomer, unassigned) [Example 30] , IC50 reported as > 30 µM
